Recorded values, source PubChem BioAssay (NCI).

System: K-562 leukemia
TEST_SUMMARY: NCI-60 one-dose screen, 48 h (100 = growth as untreated, 0 = no growth, -100 = all killed)
ASSAY_SETUP: 10 µM
Compounds without any hit were thinned out: in the full panel of roughly 83,000, 20% have a hit.
In plain terms, low growth, meaning strictly below 90%, gives Yes, and everything else gives No.

{"MOLECULE": "COc1c(O)cc2oc3cc(O)c(CC=C(C)C)c(O)c3c(=O)c2c1CC=C(C)C", "DISCRETE_LABEL": "Yes"}
{"MOLECULE": "COc1cccc2c1C(=O)c1c(O)c3c(c(O)c1C2=O)C[C@@](O)(C(C)=O)C[C@@H]3OC1CC(N)C(O)C(C)O1 (stereo partly drawn)", "DISCRETE_LABEL": "Yes"}
{"MOLECULE": "CC(=O)Nc1cc(C)ccc1C", "DISCRETE_LABEL": "No"}
{"MOLECULE": "OCC(O)C(O)C(O)C(/C=N/Nc1ccccc1)=N/Nc1ccccc1 (stereo not drawn)", "DISCRETE_LABEL": "Yes"}
{"MOLECULE": "COC1OCC(O)C(O)C1O (stereo not drawn)", "DISCRETE_LABEL": "No"}
{"MOLECULE": "O=C(O)COc1ccc(OCC(=O)O)cc1", "DISCRETE_LABEL": "Yes"}
{"MOLECULE": "COc1ccc(CC(=O)c2ccc(O)cc2O)cc1", "DISCRETE_LABEL": "No"}
{"MOLECULE": "CCCCCCCCCCCCCCCCCCOCC(COP(=O)([O-])OCC[N+](C)(C)C)OC (stereo not drawn)", "DISCRETE_LABEL": "No"}
{"MOLECULE": "Clc1ccc(/C=C/c2ccccn2)c(Cl)c1", "DISCRETE_LABEL": "No"}
{"MOLECULE": "O=C(/C=C/c1cccnc1)c1ccccc1", "DISCRETE_LABEL": "Yes"}
{"MOLECULE": "COc1cccc2c1C(=O)c1c(O)c3c(c(O)c1C2=O)C[C@@](O)(C(=O)CO)C[C@@H]3OC1CC(N)C(O)C(C)O1 (stereo partly drawn)", "DISCRETE_LABEL": "Yes"}
{"MOLECULE": "O=C(/C=C/c1ccccn1)c1ccccc1", "DISCRETE_LABEL": "Yes"}

---

Test system: LOX IMVI melanoma
TEST_SUMMARY: NCI-60 one-dose screen, 48 h
ASSAY_SETUP: 10 µM unless noted
This is part of a sample that, as a whole, favours compounds with a hit. Of some 83,000 tested, about 20% had one in any assay. Calls of active or inactive are those of the source. The calls were made as follows: active = growth percent below 10; inactive = the rest.
Classes used: active, inactive

{"MOLECULE": "CCC(C)(C)c1cc(O)c(C(C)(C)CC)cc1O", "SYSTEM_UNDER_TEST": "LOX IMVI melanoma", "DISCRETE_LABEL": "inactive"}
{"MOLECULE": "CC(=O)OCC(OC(C)=O)C(OC(C)=O)C(OC(C)=O)C(OC(C)=O)C(/C=N/Nc1ccccc1)=N/Nc1ccccc1 (stereo not drawn)", "SYSTEM_UNDER_TEST": "LOX IMVI melanoma", "DISCRETE_LABEL": "inactive"}
{"MOLECULE": "CO[C@H](C(=O)[C@@H](O)[C@@H](C)O)[C@@H]1Cc2cc3cc(OC4CC(OC5CC(O)C(O)C(C)O5)C(O)C(C)O4)c(C)c(O)c3c(O)c2C(=O)[C@H]1OC1CC(OC2CC(OC3CC(C)(O)C(O)C(C)O3)C(O)C(C)O2)C(O)C(C)O1 (stereo partly drawn)", "SYSTEM_UNDER_TEST": "LOX IMVI melanoma", "DISCRETE_LABEL": "active"}
{"MOLECULE": "CCN1/C(=C/C=C/C=C/c2sc3ccccc3[n+]2CC)Sc2ccccc21", "SYSTEM_UNDER_TEST": "LOX IMVI melanoma", "DISCRETE_LABEL": "active"}
{"MOLECULE": "CC1=CC(C)=Nc2ccc(Cl)cc2N1", "SYSTEM_UNDER_TEST": "LOX IMVI melanoma", "DISCRETE_LABEL": "inactive"}
{"MOLECULE": "Clc1cc(Cl)c(Cl)nn1", "SYSTEM_UNDER_TEST": "LOX IMVI melanoma", "DISCRETE_LABEL": "inactive"}
{"MOLECULE": "COc1cccc2c1C(=O)c1c(O)c3c(c(O)c1C2=O)C[C@@](O)(C(C)=O)C[C@@H]3OC1CC(N)C(O)C(C)O1 (stereo partly drawn)", "SYSTEM_UNDER_TEST": "LOX IMVI melanoma", "DISCRETE_LABEL": "active"}
{"MOLECULE": "OC(CN1CCCC2CCCCC21)c1cc2ccccc2c2ccccc12 (stereo not drawn)", "SYSTEM_UNDER_TEST": "LOX IMVI melanoma", "DISCRETE_LABEL": "active"}
{"MOLECULE": "CC[N+](CC)=c1ccc2nc3c(cc(N)c4ccccc43)oc-2c1", "SYSTEM_UNDER_TEST": "LOX IMVI melanoma", "DISCRETE_LABEL": "active"}
{"MOLECULE": "COC(=O)C1C(O)C(C)C(O)C(C)C=C(C)C2=C3C(=C(C)C(=O)c4c(O)c(c(C)c(OC(C)=O)c43)NC(=O)C(C)=C/C=C\\C(C)C(O)C(C)C1O)OCO2 (stereo not drawn)", "SYSTEM_UNDER_TEST": "LOX IMVI melanoma", "DISCRETE_LABEL": "inactive"}
{"MOLECULE": "CCO/C=C1\\SC(=S)N(c2cccc(O)c2)C1=O", "SYSTEM_UNDER_TEST": "LOX IMVI melanoma", "DISCRETE_LABEL": "inactive"}
{"MOLECULE": "O=C(O)COc1ccc(OCC(=O)O)cc1", "SYSTEM_UNDER_TEST": "LOX IMVI melanoma", "DISCRETE_LABEL": "active"}
{"MOLECULE": "OCC(O)C(O)C(O)C(/C=N/Nc1ccccc1)=N/Nc1ccccc1 (stereo not drawn)", "SYSTEM_UNDER_TEST": "LOX IMVI melanoma", "DISCRETE_LABEL": "inactive"}
{"MOLECULE": "CCCCCCCCCCCCCCCCCCOCC(COP(=O)([O-])OCC[N+](C)(C)C)OC (stereo not drawn)", "SYSTEM_UNDER_TEST": "LOX IMVI melanoma", "DISCRETE_LABEL": "inactive"}
{"MOLECULE": "CCCCCCCCCCCC[N+](C)(C)Cc1ccccc1", "SYSTEM_UNDER_TEST": "LOX IMVI melanoma", "DISCRETE_LABEL": "inactive"}
{"MOLECULE": "NC(=O)SCC(=O)NNc1ccccc1", "SYSTEM_UNDER_TEST": "LOX IMVI melanoma", "DISCRETE_LABEL": "inactive"}
{"MOLECULE": "CCCCCC(C)c1ccc(O)c(C)c1 (stereo not drawn)", "SYSTEM_UNDER_TEST": "LOX IMVI melanoma", "DISCRETE_LABEL": "inactive"}
{"MOLECULE": "CCCCCCCCCCSC(=N)N", "SYSTEM_UNDER_TEST": "LOX IMVI melanoma", "DISCRETE_LABEL": "inactive"}
{"MOLECULE": "O=C(/C=C/c1cccnc1)c1ccccc1", "SYSTEM_UNDER_TEST": "LOX IMVI melanoma", "DISCRETE_LABEL": "inactive"}
{"MOLECULE": "NC1=C(Cl)C(=O)c2ccccc2C1=O", "SYSTEM_UNDER_TEST": "LOX IMVI melanoma", "DISCRETE_LABEL": "inactive"}
{"MOLECULE": "COc1c(O)cc2oc3cc(O)c(CC=C(C)C)c(O)c3c(=O)c2c1CC=C(C)C", "SYSTEM_UNDER_TEST": "LOX IMVI melanoma", "DISCRETE_LABEL": "active"}
{"MOLECULE": "O=C(/C=C/c1ccccn1)c1ccccc1", "SYSTEM_UNDER_TEST": "LOX IMVI melanoma", "DISCRETE_LABEL": "active"}
{"MOLECULE": "Oc1ccc(N=Nc2ccccn2)c(O)c1", "SYSTEM_UNDER_TEST": "LOX IMVI melanoma", "DISCRETE_LABEL": "active"}

---

Tested on: HOP-62 NSCLC
TEST_SUMMARY: NCI-60 one-dose screen, 48 h (100 = growth as untreated, 0 = no growth, -100 = all killed)
ASSAY_SETUP: 10 µM
Compounds without any hit were thinned out: in the full panel of roughly 83,000, 20% have a hit.
Binarize growth at 70%; below is class 1, at or above is class 0.

{"MOLECULE": "O=C(O)COc1ccc(OCC(=O)O)cc1", "DISCRETE_LABEL": "class 1"}
{"MOLECULE": "O=C1C=C(O)c2ccccc2C1=O.[Ag]", "DISCRETE_LABEL": "class 0"}
{"MOLECULE": "COc1ccc(CC(=O)c2ccc(O)cc2O)cc1", "DISCRETE_LABEL": "class 0"}
{"MOLECULE": "CC(=O)Nc1cc(C)ccc1C", "DISCRETE_LABEL": "class 0"}
{"MOLECULE": "OC(CN1CCCC2CCCCC21)c1cc2ccccc2c2ccccc12 (stereo not given)", "DISCRETE_LABEL": "class 1"}
{"MOLECULE": "CCN1/C(=C/C=C/C=C/c2sc3ccccc3[n+]2CC)Sc2ccccc21", "DISCRETE_LABEL": "class 1"}
{"MOLECULE": "CCCCCCCCCCCCCCCCCCOCC(COP(=O)([O-])OCC[N+](C)(C)C)OC (stereo not given)", "DISCRETE_LABEL": "class 1"}
{"MOLECULE": "Cc1nc(N=C(N)N)nc2ccc3ccccc3c12", "DISCRETE_LABEL": "class 1"}
{"MOLECULE": "N=S(c1ccccc1[N+](=O)[O-])c1ccccc1[N+](=O)[O-]", "DISCRETE_LABEL": "class 0"}
{"MOLECULE": "NC(=O)SCC(=O)NNc1ccccc1", "DISCRETE_LABEL": "class 0"}
{"MOLECULE": "COc1cccc2c1C(=O)c1c(O)c3c(c(O)c1C2=O)C[C@@](O)(C(C)=O)C[C@@H]3OC1CC(N)C(O)C(C)O1 (stereo not given in full)", "DISCRETE_LABEL": "class 1"}
{"MOLECULE": "CO[C@H](C(=O)[C@@H](O)[C@@H](C)O)[C@@H]1Cc2cc3cc(OC4CC(OC5CC(O)C(O)C(C)O5)C(O)C(C)O4)c(C)c(O)c3c(O)c2C(=O)[C@H]1OC1CC(OC2CC(OC3CC(C)(O)C(O)C(C)O3)C(O)C(C)O2)C(O)C(C)O1 (stereo not given in full)", "DISCRETE_LABEL": "class 1"}
{"MOLECULE": "O=[N+]([O-])C1=C(c2ccccc2)SC=C(c2ccccc2)S1", "DISCRETE_LABEL": "class 0"}
{"MOLECULE": "O=c1ccn(C2CC(O)C(COC(c3ccccc3)(c3ccccc3)c3ccccc3)O2)c(=O)[nH]1 (stereo not given)", "DISCRETE_LABEL": "class 0"}
{"MOLECULE": "O=C(/C=C/c1ccccn1)c1ccccc1", "DISCRETE_LABEL": "class 0"}
{"MOLECULE": "CC(C)(C)CC(C)(C)c1ccc(OCCO)cc1", "DISCRETE_LABEL": "class 0"}
{"MOLECULE": "NNc1c2ccccc2nc2ccccc12", "DISCRETE_LABEL": "class 1"}
{"MOLECULE": "CCN(CC)c1ccc(NC(C(=O)c2ccccc2)c2ccccc2)cc1 (stereo not given)", "DISCRETE_LABEL": "class 0"}
{"MOLECULE": "CCCCCC(C)c1ccc(O)c(C)c1 (stereo not given)", "DISCRETE_LABEL": "class 0"}
{"MOLECULE": "O=C1C=CC(=CC=C2C=CN(CCCCCCCCCCCO)C=C2)C=C1", "DISCRETE_LABEL": "class 1"}
{"MOLECULE": "CC1=CC(C)=Nc2ccc(Cl)cc2N1", "DISCRETE_LABEL": "class 0"}
{"MOLECULE": "COc1cccc2c1C(=O)c1c(O)c3c(c(O)c1C2=O)C[C@@](O)(C(=O)CO)C[C@@H]3OC1CC(N)C(O)C(C)O1 (stereo not given in full)", "DISCRETE_LABEL": "class 1"}
{"MOLECULE": "CS(=O)(=O)OC1CC(n2ccc(=O)[nH]c2=O)OC1COC(c1ccccc1)(c1ccccc1)c1ccccc1 (stereo not given)", "DISCRETE_LABEL": "class 0"}
{"MOLECULE": "CSC1SCC2C(=O)N(C)C(C(C)C)C(=O)OCC(NC(=O)c3cnc4ccccc4n3)C(=O)NC(C)C(=O)N(C)C1C(=O)N(C)C(C(C)C)C(=O)OCC(NC(=O)c1cnc3ccccc3n1)C(=O)NC(C)C(=O)N2C (stereo not given)", "DISCRETE_LABEL": "class 1"}
